- systemTested: UniProtKB Q01959
- Sequence (Q01959 whole entry): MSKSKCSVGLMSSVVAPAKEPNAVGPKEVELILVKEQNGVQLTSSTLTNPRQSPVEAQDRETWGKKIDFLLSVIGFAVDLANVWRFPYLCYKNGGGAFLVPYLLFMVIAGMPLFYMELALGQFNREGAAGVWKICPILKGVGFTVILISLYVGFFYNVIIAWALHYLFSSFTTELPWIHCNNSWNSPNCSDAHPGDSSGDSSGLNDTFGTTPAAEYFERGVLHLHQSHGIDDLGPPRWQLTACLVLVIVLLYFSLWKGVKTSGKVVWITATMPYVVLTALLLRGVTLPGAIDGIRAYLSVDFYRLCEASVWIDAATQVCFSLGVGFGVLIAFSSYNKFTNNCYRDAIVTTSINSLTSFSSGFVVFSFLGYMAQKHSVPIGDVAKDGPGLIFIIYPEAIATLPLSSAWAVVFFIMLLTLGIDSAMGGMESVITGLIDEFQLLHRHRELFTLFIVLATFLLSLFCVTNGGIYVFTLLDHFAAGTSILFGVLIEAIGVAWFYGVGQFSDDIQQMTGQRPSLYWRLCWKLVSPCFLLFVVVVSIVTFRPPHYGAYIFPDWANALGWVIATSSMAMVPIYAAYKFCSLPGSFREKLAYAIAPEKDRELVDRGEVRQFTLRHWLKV
- method: Displacement of [3H]Win35428 from human recombinant DAT over-expressed in CHOK1 cells at 10 uM
- Type: cell-based
- conditionsUsed: CHO-K1
Overview of recorded inhibition for various compounds
property: inhibition (%)

[[record]]
compound = "O=C1NCC(c2cccc(Cl)c2)C1c1ccccc1 (configuration not stated)"
assayresult = 98

[[record]]
compound = "O=C1NCC(c2cccc(Cl)c2)C1c1ccccc1Cl (configuration not stated)"
assayresult = 96

[[record]]
compound = "O=C1NCC(c2ccccc2Cl)C1c1ccc(Cl)cc1 (configuration not stated)"
assayresult = 51

[[record]]
compound = "O=C1NCC(c2ccc(Cl)cc2)C1c1ccc(Cl)c(Cl)c1 (configuration not stated)"
assayresult = 96

[[record]]
compound = "O=C1NCC(c2ccc(Cl)c(Cl)c2)C1c1ccc2ccccc2c1 (configuration not stated)"
assayresult = 86

[[record]]
compound = "O=C1NCC(c2ccc(Cl)c(Cl)c2)C1c1cccc(Cl)c1 (configuration not stated)"
assayresult = 87

[[record]]
compound = "O=C1NCC(c2ccc(Cl)cc2)C1c1ccc2ccccc2c1 (configuration not stated)"
assayresult = 97

